Tested on: 786-0 renal
Experiment: NCI-60 one-dose screen, 48 h (100 = growth as untreated, 0 = no growth, -100 = all killed)
Settings: 10 µM unless noted
Method: Cells are grown in 96 well plates and exposed to the test compound for 48 hours. Compounds are tested at a single concentration, which is 10^-5 M for most compounds. The reported endpoint is percent growth (GI% or GIPRCNT), where numbers from 0 - 100% represent growth inhibition, and numbers from -100% - 0 represent cell death. For example, a value of 40 represents 60% growth inhibition. A value of 0 means no net growth occurred over the course of the experiment. […]
This is part of a sample that, as a whole, favours compounds with a hit. Of some 83,000 tested, about 20% had one in any assay.
Label 1.0 when growth < 70%; otherwise 0.0.

Is it true that growth reported for COc1cc(/C=C/C(=O)c2ccc(Nc3nc(NCCO)nc(N4CCOCC4)n3)cc2)cc(OC)c1OC is less than 70%?
1.0

Does O=Cc1c(OCc2cnnn2CC(=O)Nc2ccc(Br)cc2)ccc2ccccc12 have growth strictly under 70%?
0.0

Check if growth falls below 70% for O=C(Nc1ccc(C23CC4CC(CC(c5ccccc5)(C4)C2)C3)cc1)c1cccs1 .
0.0

Please check: growth for NCCNc1nc2ccccc2c2c(=O)c3cc(F)cc(Cl)c3sc12 , strictly under 70% or not?
1.0

Just wondering, is growth of COc1ccc(CCN2CCC(CN(C)Cc3cnn(-c4ccccc4)c3)CC2)cc1 below 70%?
1.0

Determine if CC(C)(C)c1ccc(C2CC(=O)C3=C(C2)Nc2ccccc2N(C(=O)c2ccccc2Cl)C3c2ccc(F)cc2)cc1 (configuration not stated) shows growth strictly lower than 70%.
1.0

Threshold test, growth < 70%: COc1cc(C(=O)Nc2ccc(-c3nc4ccccc4[nH]3)cc2)cc(OC)c1OC
0.0

Item CN1C(=O)N(C)C2C1NN=c1s/c(=C\c3ccc([N+](=O)[O-])cc3)c(=O)n12 (configuration not stated) : growth beneath 70%, strictly?
1.0

Hello, I'm reviewing records and need to know if growth of O=C(CSc1ccc2nnc(-c3cccc(F)c3)n2n1)Nc1ccc2c(c1)OCO2 is below 70%. Could you check?
0.0

Is 70% strictly greater than the compound's reported growth? compound: CC(=S)NC(=O)C(=O)/C=C1/NC(=O)C(=O)S1
0.0

Below 70% on growth? Entry O=C(Nc1ccc(I)cc1F)c1cc(Cl)ccc1O
1.0

Please determine if O=c1oc2ccc(I)cc2c(=O)n1-c1ccc(Br)cc1F is below 70% in terms of growth.
1.0

Hi there! Is growth for O=C(O)CCCN1C(=O)C2C3CCC(C3)C2C1=O (configuration not stated) below 70%, do you know?
0.0

Given CC(=O)O[C@@H]1/C=C/C(=O)N[C@@H](C)CCC/C=C/[C@@H]2CCC[C@H]21 , is recorded growth strictly lower than 70%?
0.0

Determine if COc1ccc(Nc2cc(C)nc(NCc3ccccc3)n2)cc1 shows growth strictly lower than 70%.
1.0

Criterion: growth strictly below 70%. Is it met by O=C(Nc1ccc(Br)cc1F)c1cc(I)ccc1O ?
1.0

Is 70% strictly greater than the compound's reported growth? compound: CCCCC(O)(c1ccc(Cl)cc1)C(CN1CCOCC1)c1ccc(Cl)cc1 (configuration not stated)
1.0

Report whether reported growth is lower than 70% (strictly) for COc1ccc(C(=O)C2CC2c2ccc(Cl)cc2)cc1 (configuration not stated)
0.0

API: query returns whether the compound falls strictly under 70% in growth. Query: CCOC(=O)C1(C(=O)OCC)N=C(c2ccccc2)C=C1c1ccccc1
0.0

# strict comparison: is reported growth < 70%? input = COc1ccc(CCN2C(=O)CCSC2=S)cc1OC
1.0

Lab log: compare recorded growth with 70%; is it strictly lower for COc1cccc2c1C=C1CCCCC3=Cc4c(OC)cccc4OC13O2 ?
1.0

Answer whether the compound O=C1OC(c2ccccc2)(c2ccccc2)c2ccsc21 has growth strictly less than 70%
0.0

Values from PubChem BioAssay (NCI)
